As shown below, each of these binders has a reported Kd value.
ASSAYED_TARGET: T1, human TL1A (Fitzgerald #30R-AT070) (human, UniProt O95150 72-251, limits assumed)
T1 construct: Coated on the ELISA plate at 1 ug/mL; also called TNFSF15
T1 sequence (looked up): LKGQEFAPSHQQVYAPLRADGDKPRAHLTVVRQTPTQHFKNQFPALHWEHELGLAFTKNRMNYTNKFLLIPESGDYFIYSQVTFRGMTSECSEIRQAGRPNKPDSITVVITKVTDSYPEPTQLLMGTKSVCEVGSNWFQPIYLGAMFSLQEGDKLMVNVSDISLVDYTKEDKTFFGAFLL
METHOD_NOTES: ELISA titration, coated human TL1A, culture supernatant
Expressed in nM, but write only the number.

Here is how some binders turned out for Kd.
1. A97 (antibody, human IgG1, V domains shown, human IgG1/kappa (pFuse vectors), culture supernatant) VH: QVQLVQSGAEVKKPGASVKVSCKASGFDIQDTYMHWVRQAPGQGLEWMGRIEPASGHIKYDPKFQVRVTMTRDTSTSTVYMELSSLRSEDTAVYYCARSGGLPDWWGQGTTVTVSS VL: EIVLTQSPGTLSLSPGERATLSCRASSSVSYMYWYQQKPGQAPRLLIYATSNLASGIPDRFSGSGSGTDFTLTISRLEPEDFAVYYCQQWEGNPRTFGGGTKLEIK : 0.071
2. A60 (antibody, human IgG1, V domains shown, human IgG1/kappa (pFuse vectors), culture supernatant) VH: QVQLVQSGAEVKKPGASVKVSCKASGFDIQDTYMHWVRQAPGQGLEWMGRIDPASGHIKYDPKFQGRVTMTRDTSTSTVYMELSSLRSEDTAVYYCARSGGLPDWWGQGTTVTVSS VL: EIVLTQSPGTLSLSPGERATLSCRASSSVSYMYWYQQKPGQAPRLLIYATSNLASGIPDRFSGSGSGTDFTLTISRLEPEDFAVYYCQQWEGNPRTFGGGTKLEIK : 0.168
3. A117 (antibody, human IgG1, V domains shown, human IgG1/kappa (pFuse vectors), culture supernatant) VH: QVQLVQSGAEVKKPGASVKVSCKASGFDIQDTYMHWVRQAPGQGLEWMGRIDPASGHIKYDPKFQGRVTMTRDTSTSTVYMELSSLRSEDTAVYYCARSGGLPDWWGQGTTVTVSS VL: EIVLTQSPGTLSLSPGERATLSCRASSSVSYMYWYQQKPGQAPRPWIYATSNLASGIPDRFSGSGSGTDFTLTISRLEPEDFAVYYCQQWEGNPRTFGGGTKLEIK : 0.094

Returns the measured Kd for the input binder. Input: A93 (antibody, human IgG1, V domains shown, human IgG1/kappa (pFuse vectors), culture supernatant) VH: QVQLVQSGAEVKKPGASVKVSCKASGFDIQDTYMHWVRQAPGQGLEWMGRIEPASGHIKYDPKFQGRVTMTRDTSTSTAYLELSSLRSEDTAVYYCARSGGLPDWWGQGTTVTVSS VL: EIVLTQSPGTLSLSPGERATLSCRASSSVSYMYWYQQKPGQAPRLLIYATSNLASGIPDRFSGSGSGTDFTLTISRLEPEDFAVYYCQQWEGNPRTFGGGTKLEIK
0.117

Returns the measured Kd for the input binder. Input: A113 (antibody, human IgG1, V domains shown, human IgG1/kappa (pFuse vectors), culture supernatant) VH: QVQLVQSGAEVKKPGASVKVSCKASGFDIQDTYMHWVRQAPGQGLEWMGRIEPASGHIKYDPKFQVRATITRDTSTSTVYMELSSLRSEDTAVYYCARSGGLPDWWGQGTTVTVSS VL: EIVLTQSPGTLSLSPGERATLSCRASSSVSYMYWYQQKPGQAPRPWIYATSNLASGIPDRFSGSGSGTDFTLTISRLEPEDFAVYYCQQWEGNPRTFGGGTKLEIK
0.05

Returns the measured Kd for the input binder. Input: A107 (antibody, human IgG1, V domains shown, human IgG1/kappa (pFuse vectors), culture supernatant) VH: QVQLVQSGAEVKKPGASVKVSCKASGFDIQDTYMHWVKQRPGQGLEWIGRIDPASGHTKYDPKFQVRATITTDTSTSTAYLELSSLRSEDTAVYYCARSGGLPDVWGQGTTVTVSS VL: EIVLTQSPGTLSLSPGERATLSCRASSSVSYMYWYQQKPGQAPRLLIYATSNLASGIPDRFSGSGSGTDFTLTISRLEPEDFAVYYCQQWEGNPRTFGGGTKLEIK
0.071

Returns the measured Kd for the input binder. Input: A39 (antibody, human IgG1, V domains shown, human IgG1/kappa (pFuse vectors), culture supernatant) VH: QVQLVQSGAEVKKPGASVKVSCKASGFDIQDTYMHWVKQRPGQGLEWIGRIDPASGHTKYDPKFQVRATITTDTSTSTAYMELSSLRSEDTAVYYCARSGGLPDVWGQGTTVTVSS VL: EIVLTQSPGTLSASPGERATMSCRASSSVSYMYWYQQKPGQAPRPWIYATSNLASGVPDRFSGSGSGTDYTLTISRVEPEDFAVYYCQQWSGNPRTFGGGTKLEIK
0.125

Returns the measured Kd for the input binder. Input: A62 (antibody, human IgG1, V domains shown, human IgG1/kappa (pFuse vectors), culture supernatant) VH: QVQLVQSGAEVKKPGASVKVSCKASGFDIQDTYMHWVRQAPGQGLEWIGRIDPASGHIKYDPKFQGRVTMTRDTSTSTVYMELSSLRSEDTAVYYCARSGGLPDWWGQGTTVTVSS VL: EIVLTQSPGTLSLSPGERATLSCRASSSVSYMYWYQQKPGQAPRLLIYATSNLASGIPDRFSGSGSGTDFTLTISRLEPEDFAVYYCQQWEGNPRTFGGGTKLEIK
0.15

Returns the measured Kd for the input binder. Input: A125 (antibody, human IgG1, V domains shown, human IgG1/kappa (pFuse vectors), culture supernatant) VH: QVQLVQSGAEVKKPGASVKVSCKASGFDIQDTYMHWVKQRPGQGLEWMGRIDPASGHTKYDPKFQVRATITRDTSTSTAYLELSSLRSEDTAVYYCARSGGLPDVWGQGTTVTVSS VL: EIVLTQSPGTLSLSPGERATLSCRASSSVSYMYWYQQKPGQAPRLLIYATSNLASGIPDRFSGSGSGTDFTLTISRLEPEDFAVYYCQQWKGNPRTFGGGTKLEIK
0.116

Returns the measured Kd for the input binder. Input: A69 (antibody, human IgG1, V domains shown, human IgG1/kappa (pFuse vectors), culture supernatant) VH: EVQLVQSGAEVKKPGASVKVSCKASGFDIQDTYMHWVRQAPGQGLEWMGRIEPASGHIKYDPKFQGRVTMTRDTSTSTVYMELSSLRSEDTAVYYCARSGGLPDWWGQGTTVTVSS VL: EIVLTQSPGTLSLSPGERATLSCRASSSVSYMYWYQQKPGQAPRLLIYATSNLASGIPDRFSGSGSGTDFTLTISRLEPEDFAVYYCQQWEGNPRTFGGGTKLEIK
0.136
